meta.source: ChEMBL document CHEMBL1147047

# experimental target: Coagulation factor V (Homo sapiens, UniProt P12259)
# Sequence (P12259 29-737 limits assumed): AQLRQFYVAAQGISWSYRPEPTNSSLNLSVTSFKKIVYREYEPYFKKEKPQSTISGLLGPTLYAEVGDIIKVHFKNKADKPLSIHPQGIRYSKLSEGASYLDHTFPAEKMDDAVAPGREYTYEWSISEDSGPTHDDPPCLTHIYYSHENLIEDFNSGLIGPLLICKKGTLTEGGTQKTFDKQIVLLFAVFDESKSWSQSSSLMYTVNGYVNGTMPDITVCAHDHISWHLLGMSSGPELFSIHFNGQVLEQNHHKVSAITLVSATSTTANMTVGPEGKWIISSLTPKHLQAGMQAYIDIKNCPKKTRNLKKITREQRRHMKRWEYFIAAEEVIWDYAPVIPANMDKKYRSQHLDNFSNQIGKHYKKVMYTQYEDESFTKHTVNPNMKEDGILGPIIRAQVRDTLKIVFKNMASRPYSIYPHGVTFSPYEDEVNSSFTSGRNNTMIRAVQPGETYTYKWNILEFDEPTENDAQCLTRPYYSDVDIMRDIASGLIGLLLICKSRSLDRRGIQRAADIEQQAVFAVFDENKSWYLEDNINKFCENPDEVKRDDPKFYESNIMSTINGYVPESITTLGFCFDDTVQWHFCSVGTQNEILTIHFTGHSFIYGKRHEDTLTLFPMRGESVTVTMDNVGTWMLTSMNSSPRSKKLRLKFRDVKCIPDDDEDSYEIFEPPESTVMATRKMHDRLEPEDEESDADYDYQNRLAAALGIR
# Sequence (P12259 1574-2224 limits assumed): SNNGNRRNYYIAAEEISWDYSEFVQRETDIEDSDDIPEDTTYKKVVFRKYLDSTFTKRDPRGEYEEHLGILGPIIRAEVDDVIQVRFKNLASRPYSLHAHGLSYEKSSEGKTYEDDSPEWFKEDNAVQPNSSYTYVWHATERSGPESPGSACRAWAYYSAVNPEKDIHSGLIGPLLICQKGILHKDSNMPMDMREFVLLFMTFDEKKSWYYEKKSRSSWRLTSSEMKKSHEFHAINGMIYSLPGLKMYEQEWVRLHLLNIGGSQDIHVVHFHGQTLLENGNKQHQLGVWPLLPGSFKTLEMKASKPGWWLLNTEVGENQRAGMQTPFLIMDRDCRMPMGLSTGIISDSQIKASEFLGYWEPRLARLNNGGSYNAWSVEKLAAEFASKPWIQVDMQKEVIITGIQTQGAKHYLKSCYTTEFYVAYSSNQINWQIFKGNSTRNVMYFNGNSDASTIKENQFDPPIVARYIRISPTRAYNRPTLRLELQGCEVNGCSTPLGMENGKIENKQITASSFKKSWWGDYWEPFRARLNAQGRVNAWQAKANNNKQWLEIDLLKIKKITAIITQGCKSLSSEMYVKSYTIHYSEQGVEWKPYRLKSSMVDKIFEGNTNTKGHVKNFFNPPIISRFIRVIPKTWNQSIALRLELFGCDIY
# method description: Inhibition of human recombinant factor 5a C2 domain binding to immobilized phospholipid by surface plasmon resonance assay
quantity measured: IC50 (µM)
Reply with just the number (in µM).

Would you please look over these solved cases?
{"compound smiles": "O=C1NC(=O)N(c2ccccc2F)C(=O)/C1=C\\c1cc(Cl)ccc1OCc1ccc([N+](=O)[O-])cc1", "IC50 / µM": 21.9}
{"compound smiles": "CCOc1cc(/C=C2/NC(=O)N(Cc3ccccc3F)C2=O)ccc1OCc1ccc(C(=O)O)cc1", "IC50 / µM": 3.51}
{"compound smiles": "COc1cc([N+](=O)[O-])ccc1-c1ccc(/C=C2\\C(=O)NC(=O)N(c3ccc4c(c3)OCO4)C2=O)o1", "IC50 / µM": 5.53}

Next item in the queue.
So, O=C(COc1ccc(Cl)cc1Cl)Nc1ccc(C(=O)Nc2ccccc2C(=O)O)cc1 ? Its IC50 was 16.4

###

# experimental target: UniProt:P00451
# Sequence (P00451 20-759 limits assumed): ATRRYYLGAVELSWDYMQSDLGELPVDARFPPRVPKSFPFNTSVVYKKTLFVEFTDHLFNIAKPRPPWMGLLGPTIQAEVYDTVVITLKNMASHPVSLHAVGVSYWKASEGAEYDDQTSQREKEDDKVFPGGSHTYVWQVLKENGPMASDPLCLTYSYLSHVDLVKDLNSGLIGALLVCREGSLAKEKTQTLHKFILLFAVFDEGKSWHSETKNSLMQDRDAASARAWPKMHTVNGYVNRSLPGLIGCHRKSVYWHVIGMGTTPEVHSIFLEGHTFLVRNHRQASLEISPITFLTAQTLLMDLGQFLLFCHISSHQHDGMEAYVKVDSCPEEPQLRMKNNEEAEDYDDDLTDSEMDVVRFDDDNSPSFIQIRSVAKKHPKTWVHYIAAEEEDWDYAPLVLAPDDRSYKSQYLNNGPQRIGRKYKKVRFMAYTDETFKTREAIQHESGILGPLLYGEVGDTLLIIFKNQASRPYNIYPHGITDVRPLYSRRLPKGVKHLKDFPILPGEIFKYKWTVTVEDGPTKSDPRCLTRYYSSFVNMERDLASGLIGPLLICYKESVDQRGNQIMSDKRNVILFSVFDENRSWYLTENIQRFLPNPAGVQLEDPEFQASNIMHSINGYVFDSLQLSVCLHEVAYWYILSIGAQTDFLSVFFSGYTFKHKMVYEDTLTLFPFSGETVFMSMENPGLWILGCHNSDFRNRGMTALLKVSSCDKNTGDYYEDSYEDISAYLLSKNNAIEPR
# Sequence (P00451 1668-2351 limits assumed): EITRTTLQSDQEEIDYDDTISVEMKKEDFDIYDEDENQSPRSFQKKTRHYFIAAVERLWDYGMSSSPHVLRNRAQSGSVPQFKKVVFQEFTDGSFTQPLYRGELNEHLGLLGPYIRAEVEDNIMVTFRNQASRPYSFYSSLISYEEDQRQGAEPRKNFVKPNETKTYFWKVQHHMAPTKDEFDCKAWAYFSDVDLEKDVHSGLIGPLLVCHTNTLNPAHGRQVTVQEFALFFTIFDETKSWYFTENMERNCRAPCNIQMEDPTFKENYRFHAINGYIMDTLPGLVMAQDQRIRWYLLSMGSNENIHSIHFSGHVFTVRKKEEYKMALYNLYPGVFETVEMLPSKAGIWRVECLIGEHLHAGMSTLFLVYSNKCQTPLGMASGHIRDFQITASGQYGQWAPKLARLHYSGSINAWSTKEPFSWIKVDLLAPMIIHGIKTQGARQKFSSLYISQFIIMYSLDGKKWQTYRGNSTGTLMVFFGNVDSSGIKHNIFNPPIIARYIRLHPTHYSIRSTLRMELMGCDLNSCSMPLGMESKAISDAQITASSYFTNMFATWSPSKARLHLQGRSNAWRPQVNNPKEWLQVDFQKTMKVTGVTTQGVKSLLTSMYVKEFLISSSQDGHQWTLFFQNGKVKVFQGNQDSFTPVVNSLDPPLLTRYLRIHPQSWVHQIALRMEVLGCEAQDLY
quantity measured: pIC50
Please treat pIC50 as minus the base-10 logarithm of the molar concentration.

So, O=C1NC(=O)N(c2ccccc2F)C(=O)/C1=C\c1cc(Cl)ccc1OCc1ccc([N+](=O)[O-])cc1 ? Its pIC50 was 5.05

###

# experimental target: UniProt P12259
# method description: Inhibition of human factor 5a light chain binding to immobilized phospholipid by surface plasmon resonance assay
# key: entry, value: IC50
Reply with just the number (in µM).

Would you please look over these solved cases?
{"compound": "Cc1cc(-c2ccc(/C=C3/C(=O)NN(c4cccc(Cl)c4)C3=O)o2)c([N+](=O)[O-])cc1C", "IC50 [µM]": 8.55}
{"compound": "CCOc1cc(/C=C2/NC(=O)N(Cc3ccccc3F)C2=O)ccc1OCc1ccc(C(=O)O)cc1", "IC50 [µM]": 2.5}
{"compound": "CC1=NN(c2cccc(C(=O)O)c2)C(=O)/C1=C\\c1ccc(-c2ccc([N+](=O)[O-])cc2)o1", "IC50 [µM]": 8.56}
{"compound": "O=C1NC(=O)N(c2ccccc2F)C(=O)/C1=C\\c1cc(Cl)ccc1OCc1ccc([N+](=O)[O-])cc1", "IC50 [µM]": 14.1}
{"compound": "COc1cc([N+](=O)[O-])ccc1-c1ccc(/C=C2\\C(=O)NC(=O)N(c3ccc4c(c3)OCO4)C2=O)o1", "IC50 [µM]": 4.8}
{"compound": "N=c1n(CCN2CCCCC2)c2ccccc2n1CC(O)COc1ccc(Cl)cc1Cl (single isomer, unassigned)", "IC50 [µM]": 15.7}

Next item in the queue.
So, O=C(COc1ccc(Cl)cc1Cl)Nc1ccc(C(=O)Nc2ccccc2C(=O)O)cc1 ? Its IC50 was 14.1

###

# experimental target: Coagulation factor V (Homo sapiens, UniProt P12259)
# method description: Inhibition of factor 5a-mediated prothrombin activation in human plasma by prothrombinase assay
# Format: cell-free
quantity measured: log10 IC50 (log10 of the value in µM)
Form field - Quantity: IC50; Unit: µM; Scale: log10

{"compound smiles": "O=C(COc1ccc(Cl)cc1Cl)Nc1ccc(C(=O)Nc2ccccc2C(=O)O)cc1", "result value": 1.61}
{"compound smiles": "CC1=NN(c2cccc(C(=O)O)c2)C(=O)/C1=C\\c1ccc(-c2ccc([N+](=O)[O-])cc2)o1", "result value": 0.96}
{"compound smiles": "COc1cc([N+](=O)[O-])ccc1-c1ccc(/C=C2\\C(=O)NC(=O)N(c3ccc4c(c3)OCO4)C2=O)o1", "result value": 1.80}
{"compound smiles": "CC1=NN(c2ccc(Br)cc2)C(=O)/C1=C/c1ccc(-c2cccc(C(=O)O)c2)o1", "result value": 0.26}

Next item in the queue.
So, Cc1cc(-c2ccc(/C=C3/C(=O)NN(c4cccc(Cl)c4)C3=O)o2)c([N+](=O)[O-])cc1C ? Its log10 IC50 was 0.95

###

# experimental target: Coagulation factor V (Homo sapiens)
# method description: Inhibition of factor 5a-mediated prothrombin activation in human plasma by prothrombinase assay
# Format: cell-free
# key: entry, value: pIC50
Please treat pIC50 as minus the base-10 logarithm of the molar concentration.

Would you please look over these solved cases?
{"molecule": "CC(C)NC[C@@H](O)Cn1c2c(c3ccccc31)CCc1c-2cnn1-c1ccccc1", "pIC50": 5.42}
{"molecule": "N=c1n(CCN2CCCCC2)c2ccccc2n1CC(O)COc1ccc(Cl)cc1Cl (single isomer, unassigned)", "pIC50": 4.49}
{"molecule": "O=C1NC(=O)N(c2ccccc2F)C(=O)/C1=C\\c1cc(Cl)ccc1OCc1ccc([N+](=O)[O-])cc1", "pIC50": 4.42}

Next item in the queue.
So, CCOc1cc(/C=C2/NC(=O)N(Cc3ccccc3F)C2=O)ccc1OCc1ccc(C(=O)O)cc1 ? Its pIC50 was 4.73
